- targetOrTestSystem: HGFA (Homo sapiens, UniProt Q04756)
- Construct: purchased R&D Systems 1514-SE-010
- Sequence (Q04756 408-655 limits assumed): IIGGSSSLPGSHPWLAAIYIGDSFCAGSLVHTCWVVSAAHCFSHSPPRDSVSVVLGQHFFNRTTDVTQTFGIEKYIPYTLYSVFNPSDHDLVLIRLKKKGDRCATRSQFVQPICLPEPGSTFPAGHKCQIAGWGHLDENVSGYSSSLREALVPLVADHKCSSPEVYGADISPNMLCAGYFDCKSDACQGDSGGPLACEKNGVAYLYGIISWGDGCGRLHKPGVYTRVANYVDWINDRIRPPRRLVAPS
- Sequence (Q04756 373-407 partner limits assumed): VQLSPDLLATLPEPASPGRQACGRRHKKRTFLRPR
- experiment: Fluorogenic kinetic enzyme inhibitor assay, HGFA
- Format: biochemical
- reportedConditions: read-out: HGFA IC50
Listing of entries alongside the reported pIC50.
Convention used: pIC50 is expressed as -log10 of the molar concentration.

# count of solved cases: 2
| compound | pIC50 |
| --- | --- |
| CN(C)[C@@H](CCC(N)=O)C(=O)N[C@@H](Cc1ccccc1)C(=O)N[C@@H](CCCNC(=N)N)C(=O)c1nc2ccccc2s1 | 6.22 |
| CC(=O)N[C@@H](CO)C(=O)N[C@@H](Cc1cncn1COCc1ccccc1)C(=O)N[C@@H](CC(C)C)C(=O)N[C@H](CCCNC(=N)N)C(=O)c1nc2ccccc2s1 | 5.81 |

In the following, a different compound is considered.
**Q:** # returns recorded pIC50 (system: HGFA (Homo sapiens, UniProt Q04756)) for CCC(C)[C@H](NC(C)=O)C(=O)N[C@@H](CCC(N)=O)C(=O)N[C@H](C(=O)N[C@H](CCCNC(=N)N)C(=O)c1nc2ccccc2s1)C(C)C (stereo partly drawn)
**A:** 4.84
